Ratio (AD50 mouse writhing test / ED50 mouse diarrhea test): recorded values
Molecular target: peripheral opioid receptors (Mus musculus, UniProt P42866)
Construct: Mice maintained (6 mice/cage) on 0.01M saccharin water with 1 g/1 morphine sulfate; from tissue; host or cells: living morphine-maintained mice (in vivo test; endogenous receptor)
Sequence (P42866 whole entry): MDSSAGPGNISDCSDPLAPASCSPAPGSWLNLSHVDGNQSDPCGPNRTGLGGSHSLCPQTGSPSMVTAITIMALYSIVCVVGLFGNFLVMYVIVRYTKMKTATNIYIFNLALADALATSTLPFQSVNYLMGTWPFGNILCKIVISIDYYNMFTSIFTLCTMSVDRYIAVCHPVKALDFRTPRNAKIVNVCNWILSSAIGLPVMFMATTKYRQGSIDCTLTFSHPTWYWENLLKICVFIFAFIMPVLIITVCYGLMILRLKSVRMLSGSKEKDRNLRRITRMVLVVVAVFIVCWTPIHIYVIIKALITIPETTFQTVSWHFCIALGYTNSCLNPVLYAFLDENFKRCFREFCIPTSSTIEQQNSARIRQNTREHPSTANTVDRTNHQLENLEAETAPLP
Experiment: precipitated diarrhea in morphine-maintained mice (peripheral opioid activity) and comparison with the writhing test
Format: in vivo
Details: higher ratio = greater relative antagonism of peripheral opioid receptors
Structures can show the parent of a compound that is named as a salt.
The answer should be a number; do not append a unit.

Param readout = Ratio (AD50 mouse writhing test / ED50 mouse diarrhea test); param system = peripheral opioid receptors (Mus musculus, UniProt P42866); param query = CCNC(=O)CNC(=O)C(CC1CCCCC1)CN1CC[C@@](C)(c2cccc(O)c2)[C@@H](C)C1 (relative stereo) [Example 31, monohydrochloride monohydrate] ; response: value 38

Param readout = Ratio (AD50 mouse writhing test / ED50 mouse diarrhea test); param system = peripheral opioid receptors (Mus musculus, UniProt P42866); param query = Cc1oc(=O)oc1COC(=O)CNC(=O)C(Cc1ccccc1)CN1CC[C@@](C)(c2cccc(O)c2)[C@@H](C)C1 (relative stereo) [Example 95] ; response: value 14

Param readout = Ratio (AD50 mouse writhing test / ED50 mouse diarrhea test); param system = peripheral opioid receptors (Mus musculus, UniProt P42866); param query = CCOC(=O)CNC(=O)CNC(=O)C(Cc1ccccc1)CN1CC[C@@](C)(c2cccc(O)c2)[C@@H](C)C1 (relative stereo) [Example 67, monohydrochloride] ; response: value 36

Param readout = Ratio (AD50 mouse writhing test / ED50 mouse diarrhea test); param system = peripheral opioid receptors (Mus musculus, UniProt P42866); param query = C[C@@H]1CN(CC(Cc2ccccc2)C(=O)NCC(=O)O)CC[C@]1(C)c1cccc(O)c1 (single isomer, unassigned) [Example 98E] ; response: value 62

Param readout = Ratio (AD50 mouse writhing test / ED50 mouse diarrhea test); param system = peripheral opioid receptors (Mus musculus, UniProt P42866); param query = CNC(=O)CNC(=O)C(Cc1ccccc1)CN1CC[C@@](C)(c2cccc(OC)c2)[C@@H](C)C1 (single isomer, unassigned) [Example 82] ; response: value 17

Param readout = Ratio (AD50 mouse writhing test / ED50 mouse diarrhea test); param system = peripheral opioid receptors (Mus musculus, UniProt P42866); param query = C[C@H]1CN(CC(Cc2ccccc2)C(=O)NCCCC(N)=O)CC[C@@]1(C)c1cccc(O)c1 (stereo partly drawn) [Example 63, monohydrochloride] ; response: value 90

Param readout = Ratio (AD50 mouse writhing test / ED50 mouse diarrhea test); param system = peripheral opioid receptors (Mus musculus, UniProt P42866); param query = CC(C)OC(=O)CNC(=O)C(Cc1ccccc1)CN1CC[C@@](C)(c2cccc(O)c2)[C@@H](C)C1 (stereo partly drawn) [Example 51, monohydrochloride] ; response: value 25

Param readout = Ratio (AD50 mouse writhing test / ED50 mouse diarrhea test); param system = peripheral opioid receptors (Mus musculus, UniProt P42866); param query = CCc1noc(CNC(=O)C(Cc2ccccc2)CN2CC[C@@](C)(c3cccc(O)c3)[C@@H](C)C2)n1 (relative stereo) [Example 71] ; response: value 11

Param readout = Ratio (AD50 mouse writhing test / ED50 mouse diarrhea test); param system = peripheral opioid receptors (Mus musculus, UniProt P42866); param query = CCOC(=O)CN(C)C(=O)C(Cc1ccccc1)CN1CC[C@@](C)(c2cccc(O)c2)[C@@H](C)C1 (stereo partly drawn) [Example 65, monohydrochloride] ; response: value 3

Param readout = Ratio (AD50 mouse writhing test / ED50 mouse diarrhea test); param system = peripheral opioid receptors (Mus musculus, UniProt P42866); param query = CCNC(=O)CCNC(=O)C(Cc1ccccc1)CN1CC[C@@](C)(c2cccc(O)c2)[C@@H](C)C1 (stereo partly drawn) [Example 60, monohydrochloride] ; response: value 112

Param readout = Ratio (AD50 mouse writhing test / ED50 mouse diarrhea test); param system = peripheral opioid receptors (Mus musculus, UniProt P42866); param query = CCOC(=O)CCCNC(=O)C(CC1CCCCC1)CN1CC[C@@](C)(c2cccc(O)c2)[C@@H](C)C1 (stereo partly drawn) [Example 39, monohydrochloride] ; response: value 18

Param readout = Ratio (AD50 mouse writhing test / ED50 mouse diarrhea test); param system = peripheral opioid receptors (Mus musculus, UniProt P42866); param query = CNC(=O)CNC(=O)C(CC1CCCCC1)CN1CC[C@@](C)(c2cccc(O)c2)[C@@H](C)C1 (relative stereo) [Example 32, monohydrochloride] ; response: value 45
